Recorded measurements of growth, one per entry
Tested on: HS 578T breast
Assay: NCI-60 one-dose screen, 48 h (100 = growth as untreated, 0 = no growth, -100 = all killed)
Details: 10 µM
Compounds without any hit were thinned out: in the full panel of roughly 83,000, 20% have a hit.
propertyMeasured: growth (%)

In [3]: df
Out[3]:
                                   compound  systemundertest  measured
0  COc1ccc(-c2cnc(-c3ccc(Cl)cc3)[nH]2)cc1OC   HS 578T breast      93.5
1  Cc1cc(O)c2c(c1)C1OC(=O)CCCCCN1C1=C2C(=O)c2cccc(OC3CC(O)C(O)C(C)O3)c2C1=O (stereo not given)   HS 578T breast      71.5
2  CC1(O)CCC(Nc2cc(-c3ccc(C(F)(F)F)cc3)c(C#N)c3nc4ccccc4n23)CC1 (stereo not given)   HS 578T breast      74.4
3  CCN1CCN(c2cc(C)nc(N(CCCNc3ccnc4cc(Cl)ccc34)Cc3ccc4c(c3)OCO4)n2)CC1   HS 578T breast     -27.1
4  O=C(Nc1ccc(C2=NCCCN2)cc1)c1ccc(C(=O)Nc2ccc(C3=NCCCN3)cc2)nc1   HS 578T breast     -26.5

----------
System: SW-620 colon
Assay: NCI-60 one-dose screen, 48 h
Conditions: 10 µM unless noted
This is part of a sample that, as a whole, favours compounds with a hit. Of some 83,000 tested, about 20% had one in any assay. Active and inactive are the calls of the source. How the source made its calls: active means growth percent below 10; inactive means the rest.
Possible outcomes: active, inactive

>>> print(df.to_string())
                                   compound  classification
0          Nc1c2c(c(O)c3c1=C(CO)C=N3)=NCCS2          active
1  Nc1nc(N)c2nc(-c3cccc(O)c3)c(-c3cccc(O)c3)nc2n1        inactive
2  CC(C)c1cc(CNc2nc(Nc3cc(C4CC4)[nH]n3)cc(N3CCN(C)CC3)n2)on1          active
3  COC(=O)C1CCc2sc3ncnc(Nc4cn[nH]c4C(=O)Nc4ccc(CN5CCN(C)CC5)cc4)c3c21 (centres undefined)          active
4  O=C(Cc1ccc(/C=C/C(=O)c2ncc[nH]2)cc1)Nc1ccc(Br)cc1          active
5  O=C(Nc1ccc(-c2ccnc(Nc3ccc(N4CCOCC4)cc3)n2)cc1)[C@@H]1CCCN1        inactive
6  COc1cc(Nc2ncc3c(n2)-c2ccc(Cl)cc2C(c2c(F)cccc2OC)=NC3)ccc1C(=O)O        inactive
7  CC[n+]1c(/C=C/C=C2\N(C)c3ccccc3C2(C)C)sc2ccccc21        inactive
8  CN1CCC(COc2cnc(-c3cccc(Cn4nc(-c5cccc(C#N)c5)ccc4=O)c3)nc2)CC1        inactive

----------
Below is a list of entries, each paired with its recorded growth value.
Tested on: M14 melanoma
Assay: NCI-60 one-dose screen, 48 h (100 = growth as untreated, 0 = no growth, -100 = all killed)
Conditions: 10 µM unless noted
The panel holds about 83,000 compounds, 20% with a hit somewhere; the sample as a whole holds those more often.
propertyMeasured: growth (%)

>>> df
                                    compound  systemundertest  propertymeasured  measured
 0  N[C@@H]1CCCN(c2c(/C=C3\SC(=O)NC3=O)cccc2-c2ccccc2)C1     M14 melanoma            growth      54.3
 1  OCCNC(=S)Nc1ccc(-c2nc(N3C[C@H]4CC[C@@H](C3)O4)c3cccn3n2)cc1     M14 melanoma            growth      5.27
 2    O=C(Cn1ccnc1)Nc1ccc(-c2nc3ccccc3s2)cc1     M14 melanoma            growth      94.4
 3  O=C(CNc1nnc(-c2ccc(Cl)cc2)o1)Nc1ccc(-c2nc3ccccc3s2)cc1     M14 melanoma            growth       102
 4  O=CC(OC(=O)c1ccccc1)C(OC(=O)c1ccccc1)C(COC(c1ccccc1)(c1ccccc1)c1ccccc1)OC(=O)c1ccccc1 (stereo not given)     M14 melanoma            growth      53.4
 5    N#Cc1cc2[nH]c3ccc(OC(F)(F)F)cc3c2oc1=O     M14 melanoma            growth      68.4
 6  Cn1cnc2c(F)c(Nc3ccc(Br)cc3F)c(C(=O)NOCCO)cc21     M14 melanoma            growth       2.5
 7  Cc1ccc(NC(=O)c2ccc(CN3CCN(C)CC3)cc2)cc1Nc1nc(-c2cccnc2)cs1     M14 melanoma            growth      35.5
 8  CCc1ccc(/C=C/c2ccc(O)c3ncccc23)[n+](C)c1     M14 melanoma            growth      47.6
 9  O=C(CNc1nc2ccccc2s1)Nc1ccc(-c2nc3ccccc3s2)cc1     M14 melanoma            growth       115
10  COCCN1CCN(Cc2ccc(-c3n[nH]c4c3C(=O)c3c(NC(=O)NN5CCOCC5)cccc3-4)cc2)CC1     M14 melanoma            growth     -52.6
11  CS(=O)(=O)CCNCc1ccc(-c2ccc3ncnc(Nc4ccc(OCc5cccc(F)c5)c(Cl)c4)c3c2)o1     M14 melanoma            growth     -64.5
12  Cc1cc(C)n(CC(=O)Nc2ccc(-c3nc4ccccc4s3)cc2)n1     M14 melanoma            growth       111
13  CCCCOc1nc2cc(Cl)ccc2cc1/C=C/c1cc(/C=C/c2cc3ccc(Cl)cc3nc2OCCCC)n(-c2ccccc2)n1     M14 melanoma            growth      99.3
14  CC1(O)CCC2CC3OC3(C)CCC3OC3(C)C(O)CC1C2(C)C (stereo not given)     M14 melanoma            growth       114
15  Cc1ccc(NC(=O)Nc2ccc(Nc3ncnc4sc5c(c34)CCOC5)cc2)cc1Cl     M14 melanoma            growth      99.1
16  CCOC(=O)C1=C(C)N=C2Sc3cccc(OC)c3N2[C@H]1c1ccccn1     M14 melanoma            growth       103
17            N#Cc1ccc(-n2nnc3ccccc32)cc1C#N     M14 melanoma            growth       106
18  CN1CCN(c2ccc(OC(F)(F)F)c(Nc3ncc4c(n3)-c3c(c(C(N)=O)nn3CCO)CC4)c2)CC1     M14 melanoma            growth      10.2
19  COc1ccc(C2CC(=O)c3c(O)c(OC)c(OC)c(OC)c3O2)c(O)c1 (stereo not given)     M14 melanoma            growth      12.6

----------
Tested on: CCRF-CEM leukemia
Test: NCI-60 one-dose screen, 48 h (100 = growth as untreated, 0 = no growth, -100 = all killed)
Settings: 10 µM unless noted
Compounds without any hit were thinned out: in the full panel of roughly 83,000, 20% have a hit. Active and inactive are the calls of the source. Rule for the calls: active = growth percent below 10; inactive = the rest.
propertyMeasured: growth

In [3]: df
Out[3]:
                                    compound    systemundertest          measured
 0  CCN1CCN(c2cc(C)nc(N(CCCNc3ccnc4cc(Cl)ccc34)Cc3ccc4c(c3)OCO4)n2)CC1  CCRF-CEM leukemia   -18.1% (active)
 1  O=C(Nc1cccc(Cl)c1)Nc1ncc(CCNc2ncnc3ccsc23)s1  CCRF-CEM leukemia  10.1% (inactive)
 2  Cc1cc(C(=O)NOCCO)c(Nc2ccc(I)cc2F)n(C)c1=O  CCRF-CEM leukemia    85% (inactive)
 3  COc1ccc(Nc2ncccc2NC(=O)c2cn(Cc3cccc(Oc4ccccc4)c3)nn2)cc1  CCRF-CEM leukemia  91.4% (inactive)
 4  COC(=O)CCCNc1c(-c2c(O)c(O)cc3c(O)c(-c4c(C)cc5c(-c6nc7ccccn7c6NCCCC(=O)OC)c(O)c(O)cc5c4O)c(C)cc23)nc2ccccn12  CCRF-CEM leukemia  27.4% (inactive)
 5  CCC1(/C=N/NC(N)=S)NC(=O)NC1=O (centres undefined)  CCRF-CEM leukemia   102% (inactive)
 6  COc1ncc(-c2ccc3nccc(-c4ccnnc4)c3c2)cc1NS(=O)(=O)c1ccc(F)cc1F  CCRF-CEM leukemia    1.61% (active)
 7     Cc1ccc(-c2nc3ccc(Cl)cn3c2NC2CCCCC2)o1  CCRF-CEM leukemia  79.8% (inactive)
 8  CC[C@@H]1C(=O)N(C)c2cnc(Nc3ccc(C(=O)NC4CCC(N5CCN(CC6CC6)CC5)CC4)cc3OC)nc2N1C(C)C (some centres undefined)  CCRF-CEM leukemia  0.0303% (active)
 9  CC1(/C=N/NC(N)=S)NC(=O)NC1=O (centres undefined)  CCRF-CEM leukemia   100% (inactive)
10  CC(C)(O)CC(=O)NCCn1ccc2ncnc(Nc3ccc(Oc4cccc(C(F)(F)F)c4)c(Cl)c3)c21  CCRF-CEM leukemia    7.97% (active)
11  COc1ccc(Cl)c(Nc2nc3ccccc3nc2NS(=O)(=O)c2cccc(NC(=O)C(C)(C)N)c2)c1  CCRF-CEM leukemia  46.9% (inactive)
12  CC(=O)Oc1ccccc1C(=O)N=C1[Se]CCN1C(=O)c1ccccc1OC(C)=O  CCRF-CEM leukemia  18.6% (inactive)
13  CNC(=O)c1cc(Oc2ccc3nc(NC(=O)Nc4ccc(Cl)c(C(F)(F)F)c4)sc3c2)ccn1  CCRF-CEM leukemia  27.8% (inactive)
14  CCOC(=O)C1=C(C)N=C2Sc3cc(OC(F)(F)F)ccc3N2[C@H]1c1ccccn1  CCRF-CEM leukemia  43.3% (inactive)
15  C[C@H](NC(=O)c1c(N)nn2cccnc12)c1cc2cccc(C#Cc3cnn(C)c3)c2c(=O)n1-c1ccccc1  CCRF-CEM leukemia  13.8% (inactive)
16  CCOc1cc2ncc(C#N)c(Nc3ccc(F)c(Cl)c3)c2cc1NC(=O)/C=C/CN(C)C  CCRF-CEM leukemia   0.208% (active)
17  C#Cc1cccc(Nc2ncnc3cc(OCCOC)c(OCCOC)cc23)c1  CCRF-CEM leukemia  71.2% (inactive)
18  C#Cc1cccc(Nc2ncnc3cc4c(cc23)OCCOCCOCCO4)c1  CCRF-CEM leukemia  73.3% (inactive)

The origin of these recorded values is PubChem BioAssay (NCI).
